# Tested On: T1, dipeptidyl aminopeptidase-like protein 6 (DPP6), human isoform 1 (human, UniProt P42658 117-865, limits assumed)
# T1 construct: also called DPPX; DPP6 L
# T1 sequence (P42658 117-865 limits assumed): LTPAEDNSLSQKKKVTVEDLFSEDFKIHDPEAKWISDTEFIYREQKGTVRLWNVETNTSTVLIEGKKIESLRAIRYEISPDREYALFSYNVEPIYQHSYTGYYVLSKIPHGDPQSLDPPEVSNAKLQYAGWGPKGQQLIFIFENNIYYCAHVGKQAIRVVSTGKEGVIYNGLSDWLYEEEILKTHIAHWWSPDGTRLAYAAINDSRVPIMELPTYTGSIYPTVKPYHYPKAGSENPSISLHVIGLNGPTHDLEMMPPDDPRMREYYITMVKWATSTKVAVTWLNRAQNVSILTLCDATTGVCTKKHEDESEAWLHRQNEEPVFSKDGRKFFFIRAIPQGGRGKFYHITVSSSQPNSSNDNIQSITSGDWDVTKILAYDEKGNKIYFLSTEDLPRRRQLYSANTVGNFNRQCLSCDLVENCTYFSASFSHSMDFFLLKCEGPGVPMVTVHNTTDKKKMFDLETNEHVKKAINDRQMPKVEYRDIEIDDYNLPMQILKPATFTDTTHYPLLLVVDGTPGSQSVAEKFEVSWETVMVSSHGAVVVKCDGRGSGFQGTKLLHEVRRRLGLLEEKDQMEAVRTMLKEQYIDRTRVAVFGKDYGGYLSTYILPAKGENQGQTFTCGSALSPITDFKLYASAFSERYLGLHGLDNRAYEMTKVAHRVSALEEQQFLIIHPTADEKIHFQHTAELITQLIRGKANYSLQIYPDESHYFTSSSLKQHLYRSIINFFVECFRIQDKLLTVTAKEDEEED
# Assay Details: affinity, method not stated (Table 1-4)
Metric Name: Kd (nM)

Example entries and their recorded answers appear below.
binder="anti-DPP6 nanobody 2hD6 (VHH) VHH: QVQLQESGGGSVQAGGSLRLSCAASSYTYSYSCMAWFRQAPGKERERVASIHTGTGTANYADSAKGRFTISQDIAANTVYLQMNSLKLEDTAMYYCAARPGSAALRCTTDYSKPHDFTYWGQGTQVTVSS" reported=13
binder="anti-DPP6 nanobody 2hD1 (VHH) VHH: QVQLQESGGGLVQPGGSLRLSCAASGYPYGYTFSSYCMRWFRQAPGKDREGVARFERNGLTTYYDDSVKGRFTISQDNVKNTVYLQMNSLKPEDTATYYCAAAPKQLRTCGDYNYWGQGTQVTVSS" reported=69

[a] anti-DPP6 nanobody 2hD123-A24V (VHH) VHH: QVQLQESGGGSVQAGGSLRLSCAVSGSSYSRFRMGWFRQVPGKEREGVAAIYRSDGRTYYADSVKGRFTISQDNTKNTVYLQMNSLKPEDTAMYYCAAGAYSSYLMDANFAYWGQGTQVTVSS
[b] anti-DPP6 nanobody 4hD29 (VHH) VHH: QVQLQESGGGLVQPGGSLRLSCAASGFTFSSNYMTWVRQAPGKGPEWVSGINPDGSSTYYADSVKGRFTISRDNAKNTLYLQMNSLKSEDTALYKCATGAAPRIPTTLRGQGTQVTVSS
[ask] Out of a and b , name the one with the higher Kd. Bench note: the answer is the label of the chosen record.
[reply] a
